Data origin, for the record: ChEMBL document CHEMBL1153346

system: Trypanosoma brucei rhodesiense; test: Antitrypanosomal activity against Trypanosoma brucei rhodesiense STIB900 trypomastigotes infected in NMRI mouse assessed as survival and aparasitemic condition at 20 mg/kg, ip administered from day 3 to day 6 postinfection measured after 60 days postinfection; format: functional, organism-based; set-up: dose 20 mg/kg
Active and inactive are the calls of the source. No cut-off for these calls is given here.
One label from this list, please: yes = active, no = inactive

What did this assay record as the result for CCOC(=O)c1cc(C(=N)NC(C)C)ccc1OCCCCCOc1ccc(C(=N)NC(C)C)cc1C(=O)OCC.Cl.Cl ?
no

What did this assay record as the result for Cl.Cl.N=C(N)c1ccc(OCCCOc2ccc(C(=N)N)cc2)cc1 ?
no

What did this assay record as the result for Cl.Cl.Cl.Cl.N=C(N)c1ccc(OCCCCCOc2ccc(C(=N)N)cc2Cl)c(Cl)c1 ?
no

What did this assay record as the result for COc1cc(C(=N)N)ccc1OCCCOc1ccc(C(=N)N)cc1OC.Cl.Cl ?
yes

What did this assay record as the result for Cl.Cl.N=C(Nc1ccc(OCCCCCOc2ccc(NC(=N)c3ccccc3)cc2)cc1)c1ccccc1 ?
no

What did this assay record as the result for Cl.Cl.N=C(N)c1ccc(OCCCCOc2ccc(C(=N)N)cc2)cc1 ?
no

What did this assay record as the result for Cl.Cl.N=C(N)c1ccc(OCCCCCOc2ccc(C(=N)N)cc2C(N)=O)c(C(N)=O)c1 ?
no

What did this assay record as the result for CNC(=N)c1ccc(OCCCCCOc2ccc(C(=N)NC)cc2)cc1.Cl.Cl ?
yes

What did this assay record as the result for Cl.c1cc(C2=NCCN2)ccc1OCCCCCOc1ccc(C2=NCCN2)cc1 ?
no

What did this assay record as the result for Cl.Cl.N=C(N)c1cccc(OCCCCCOc2cccc(C(=N)N)c2)c1 ?
no
